# MBC per entry
system: Salmonella enterica serovar Typhimurium; conditions: 24 h
Numbered stars: 1 amine (or outer) side, 2 acyl side, 3 side chain; on linkers, the order of the positions; unused ones are H or OH. Bridge positions count the residues as written; N and C are the ends. Square brackets hold non-standard residues; d marks the D form. Side chains are listed from the residue outwards. Peptide text beside a SMILES is read from it. * marks the point of attachment. d(εLys) = N[C@H](CCCCN[*:1])C(=O)[*:2]; εLys = N[C@@H](CCCCN[*:1])C(=O)[*:2]; Fmoc = O=C(OCC1c2ccccc2-c2ccccc21)*; X1 = CC[C@H](C)CCCCC(=O)*; Dab = NCC[C@H](N)C(=O)O
Reported property: MBC (µg/mL)

INSERT INTO results (molecule, bound_operator, result_value) VALUES
  ('CC[C@H](C)CCCCC(=O)N[C@@H](CCN)C(=O)N[C@H](C(=O)N[C@@H](CCN)C(=O)N[C@H]1CCNC(=O)[C@H]([C@@H](C)O)NC(=O)[C@H](CCN)NC(=O)[C@H](CCN)NC(=O)[C@H](CC(C)C)NC(=O)[C@@H](Cc2ccccc2)NC(=O)[C@H](CCN)NC1=O)[C@@H](C)O [polymyxin B, reference compound] (X1-[Dab]T[Dab][Dab][Dab][dF]L[Dab][Dab]T; lactam 4-C (inferred); N-terminus assumed)', '=', 12.5),
  ('NCCCC[C@@H](NC(=O)[C@@H](CCCCN)NC(=O)[C@H](Cc1ccc(O)cc1)NC(=O)[C@H](CCCCNC(=O)[C@H](Cc1ccc(O)cc1)NC(=O)[C@@H](CCCCN)NC(=O)[C@H](N)CCCCNC(=O)OCC1c2ccccc2-c2ccccc21)NC(=O)[C@H](Cc1ccc(O)cc1)NC(=O)[C@@H](CCCCN)NC(=O)[C@H](N)CCCCNC(=O)OCC1c2ccccc2-c2ccccc21)C(N)=O [FDTP, Fmoc-(kkY)3K] (H-[dK](Fmoc)[dK]YK([Tyr-dK-d(εLys)-Fmoc])Y[dK][dK]-NH2)', '=', 500),
  ('NCCCC[C@H](NC(=O)[C@H](CCCCN)NC(=O)[C@H](Cc1ccc(O)cc1)NC(=O)[C@H](CCCCNC(=O)[C@H](Cc1ccc(O)cc1)NC(=O)[C@H](CCCCN)NC(=O)[C@@H](N)CCCCNC(=O)OCC1c2ccccc2-c2ccccc21)NC(=O)[C@H](Cc1ccc(O)cc1)NC(=O)[C@H](CCCCN)NC(=O)[C@@H](N)CCCCNC(=O)OCC1c2ccccc2-c2ccccc21)C(N)=O [FTP, Fmoc-(KKY)3K] (H-K(Fmoc)KYK([Tyr-Lys-εLys-Fmoc])YKK-NH2)', '=', 500),
  ('NCCCC[C@@H](N)C(=O)N[C@H](CCCCN)C(=O)N[C@@H](Cc1ccc(O)cc1)C(=O)NCCCC[C@H](NC(=O)[C@H](Cc1ccc(O)cc1)NC(=O)[C@@H](CCCCN)NC(=O)[C@H](N)CCCCN)C(=O)N[C@@H](Cc1ccc(O)cc1)C(=O)N[C@H](CCCCN)C(=O)N[C@H](CCCCN)C(N)=O [DTP, (kkY)3K] (H-[dK][dK]YK([Tyr-dK-dK])Y[dK][dK]-NH2)', '>', 1000);
